Target: acetylcholinesterase (AChE, EC 3.1.1.7) (Homo sapiens, UniProt P22303)
Construct: purchased Sigma (St. Louis, MO, USA)
Sequence (P22303 32-614, species assumed): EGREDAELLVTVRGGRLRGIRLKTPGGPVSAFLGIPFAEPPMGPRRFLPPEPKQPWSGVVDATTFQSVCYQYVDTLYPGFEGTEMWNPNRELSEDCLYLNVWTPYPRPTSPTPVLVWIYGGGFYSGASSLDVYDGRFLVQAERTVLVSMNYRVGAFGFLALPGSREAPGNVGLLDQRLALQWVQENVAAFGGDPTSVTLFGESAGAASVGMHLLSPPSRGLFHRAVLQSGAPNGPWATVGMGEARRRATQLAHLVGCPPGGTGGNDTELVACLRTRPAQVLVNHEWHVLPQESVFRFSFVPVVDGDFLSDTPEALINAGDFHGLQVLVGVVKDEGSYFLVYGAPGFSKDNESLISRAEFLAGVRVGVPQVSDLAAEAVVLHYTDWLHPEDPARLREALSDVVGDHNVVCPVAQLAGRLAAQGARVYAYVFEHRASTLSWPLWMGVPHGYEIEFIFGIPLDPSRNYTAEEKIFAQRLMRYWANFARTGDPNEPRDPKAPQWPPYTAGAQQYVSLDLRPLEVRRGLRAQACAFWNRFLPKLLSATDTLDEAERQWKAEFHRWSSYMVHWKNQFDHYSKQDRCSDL
Assay: biochemical
Settings: AChE IC50, Ellman method, 37 °C
Procedure: Inhibition of AChE activity was determined according to the Ellman method, as previously reported. The samples (2 mg/mL) were prepared by mixing tris-HCl buffer (50 mM, pH 8.0), enzyme solution (AChE or BChE), and 5-dithio-bis (2-nitrobenzoic acid) (DTNB) at pH 8.0. The reaction was started by adding acetyl-thiocholine iodide (ATCI) or butyryl-thiocholine chloride (BTCl). The absorbance of the extract was measured at 405 nm for 30 min at 37 °C. […]

>  <compound>
CC(=O)c1c(O)c(C)c(O)c2c1OC1=CC(=O)C(C(C)=O)C(=O)C12C (stereo not shown) [Usnic acid]

>  <IC50 [µM]>
6.42

$$$$

---

Molecular target: butyrylcholinesterase (BChE, EC 3.1.1.8) (Homo sapiens, UniProt P06276)
Construct: purchased Sigma (St. Louis, MO, USA)
Sequence (P06276 29-602): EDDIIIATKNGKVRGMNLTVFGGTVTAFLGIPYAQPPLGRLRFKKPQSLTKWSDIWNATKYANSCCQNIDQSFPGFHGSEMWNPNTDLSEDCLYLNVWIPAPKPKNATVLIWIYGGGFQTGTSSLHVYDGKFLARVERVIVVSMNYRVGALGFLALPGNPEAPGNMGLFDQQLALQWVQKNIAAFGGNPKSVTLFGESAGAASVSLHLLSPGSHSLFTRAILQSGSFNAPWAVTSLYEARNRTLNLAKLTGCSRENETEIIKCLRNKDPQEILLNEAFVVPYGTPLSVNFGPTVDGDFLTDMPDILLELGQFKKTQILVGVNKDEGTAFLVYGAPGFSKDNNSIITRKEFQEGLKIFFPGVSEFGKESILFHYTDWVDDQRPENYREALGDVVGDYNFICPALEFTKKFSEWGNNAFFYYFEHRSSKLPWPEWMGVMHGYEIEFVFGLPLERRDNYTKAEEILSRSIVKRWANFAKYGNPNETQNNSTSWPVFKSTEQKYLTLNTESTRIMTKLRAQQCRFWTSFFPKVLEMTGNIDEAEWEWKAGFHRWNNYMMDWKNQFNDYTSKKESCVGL
Test: biochemical

>  <compound>
CC(=O)c1c(O)c(C)c(O)c2c1OC1=CC(=O)C(C(C)=O)C(=O)C12C (stereo not shown)

>  <IC50, µM>
12.7

$$$$

---

Catalogue of ORAC values
Assay: Oxygen radical absorbance capacity (ORAC) assay
attributeMeasured: ORAC

>  <compound>
Cc1cc(O)c(C=O)c(O)c1C(=O)OCc1cc(O)c(C=O)c(O)c1C(=O)O

>  <attributeMeasured>
ORAC

>  <val>
101.11 ± 0.71 μmol Trolox/g lichen

$$$$
>  <compound>
CC(=O)c1c(O)c(C)c(O)c2c1OC1=CC(=O)C(C(C)=O)C(=O)C12C (stereo not shown)

>  <attributeMeasured>
ORAC

>  <val>
122.73 ± 1.0 μmol Trolox/g lichen

$$$$
>  <compound>
Cc1cc(O)c(C=O)c(O)c1

>  <attributeMeasured>
ORAC

>  <val>
176.28 ± 0.84 μmol Trolox/g lichen

$$$$
>  <compound>
Cc1c(O)cc2c(c1O)C(=O)OC2 [5,7-dihydroxy-6-methylphthalide]

>  <attributeMeasured>
ORAC

>  <val>
373.65 ± 1.05 μmol Trolox/g lichen

$$$$
